Values from patent US20120302573A1

systemTested: full-length proMMP9(1-707) activation by catalytic MMP3 (Homo sapiens, UniProt P14780, R574P)
Sequence (P14780 20-707 R574P): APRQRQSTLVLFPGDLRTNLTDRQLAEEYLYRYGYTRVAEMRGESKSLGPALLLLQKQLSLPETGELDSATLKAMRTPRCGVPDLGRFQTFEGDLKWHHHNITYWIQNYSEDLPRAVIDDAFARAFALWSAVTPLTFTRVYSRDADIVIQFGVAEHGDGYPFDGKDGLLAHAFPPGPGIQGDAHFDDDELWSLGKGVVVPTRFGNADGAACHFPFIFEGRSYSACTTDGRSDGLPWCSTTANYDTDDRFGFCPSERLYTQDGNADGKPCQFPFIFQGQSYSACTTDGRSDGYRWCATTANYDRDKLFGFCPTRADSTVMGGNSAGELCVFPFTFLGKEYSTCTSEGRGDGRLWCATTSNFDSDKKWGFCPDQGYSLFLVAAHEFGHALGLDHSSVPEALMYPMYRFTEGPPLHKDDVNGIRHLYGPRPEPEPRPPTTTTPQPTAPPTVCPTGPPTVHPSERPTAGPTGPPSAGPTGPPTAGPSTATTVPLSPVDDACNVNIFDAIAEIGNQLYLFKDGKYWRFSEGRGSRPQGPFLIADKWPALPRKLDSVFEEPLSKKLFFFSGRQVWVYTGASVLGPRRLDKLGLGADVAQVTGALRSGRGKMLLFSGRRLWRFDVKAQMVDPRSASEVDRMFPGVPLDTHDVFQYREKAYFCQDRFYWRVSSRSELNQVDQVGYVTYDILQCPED
assayExplanation: ProMMP9/MMP3 DQ Gelatin Activation Assay;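 also: readout is fluorescence of quenched fluorescein gelatin cut by activated MMP9, 30 min activation at 37 °C, inhibition relative to DMSO-only controls with EDTA as blank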
Type: biochemical
Set-up: made in house; host or cells: COS-1 (proMMP9); E. coli (MMP3)
testConditions: proMMP9 from COS-1 cells; read-out: ProMMP9/MMP3 DQ gel, IC50
pIC50: −log10 of the molar value.
Classify by measured pIC50: TRUE if it is equal to or exceeds 5, FALSE if it is smaller.

| compound | className |
| --- | --- |
| CSc1ccccc1Nc1nc(-c2sc(NC(C)=O)nc2C)cs1 | TRUE |
| COc1ccccc1Nc1nc(-c2c[nH]c3ncccc23)cs1 | FALSE |
| COc1ccccc1Nc1nc(-c2sc(N(C)C(C)=O)nc2C)cs1 | TRUE |
| CC(=O)Nc1nc(C)c(-c2csc(Nc3ccccc3F)n2)s1 | FALSE |
| CCOc1ccccc1Nc1nc(-c2cn3ccccc3n2)cs1 | FALSE |
| CC(=O)Nc1nc(C)c(-c2csc(Nc3ccccc3C)n2)s1 | FALSE |
| COc1ccc(Cl)cc1Nc1nc(-c2sc(NC(C)=O)nc2C)cs1 | TRUE |
| COc1ccccc1Nc1nc(-c2sc(N)nc2C)cs1 | TRUE |
| COc1ccccc1Nc1nc(-c2sc(C)nc2C)cs1 | TRUE |
| CC(=O)Nc1nc(C)c(-c2csc(Nc3ccccc3C(F)(F)F)n2)s1 | FALSE |
| COc1ccccc1Nc1nc(-c2sc(C)cc2C)cs1 | FALSE |
| COc1ccccc1Nc1nc(C2(C)CC3(CC(C)OC3=O)C(=O)O2)cs1 (centres unmarked) | TRUE |
| CCCOc1ccccc1Nc1nc(-c2cccnc2)cs1 | FALSE |
| c1cncc(-c2csc(Nc3ccccc3OCc3cccs3)n2)c1 | FALSE |
